- System: H. influenza Hi4 efflux pump KO
Rule for this label: rule met means MIC is less than 8 µg/mL; rule not met means MIC is at least 8 µg/mL.

The following compounds have reported results that may help.
COMPOUND	GROUP
COCC(=NOC(C)=O)[C@H]1OC(=O)[C@H](COC)[C@H]2C=C[C@H]3[C@H]4O[C@]2(/C(C)=C/[C@H]1C)[C@@H]3[C@H](O)[C@@H](COC)[C@H]4OC(=O)c1cc(Cl)c[nH]1 [Compound 42]	rule met
CO[C@H]1C[C@H]2C=C[C@H]3[C@H]4O[C@]2(/C(C)=C/[C@@H](C)[C@@H]([C@@H](C)O)OC1=O)[C@@H]3[C@H](O)[C@@H](C)[C@H]4OC(=O)c1ccc[nH]1 [Nargenicin A1, reference compound]	rule met
COC[C@@H]1[C@@H](O)[C@@H]2[C@H]3C=C[C@@H]4[C@@H](COC)C(=O)O[C@H]([C@H](O)COC)[C@H](C)/C=C(\C)[C@@]24O[C@H]3[C@@H]1OC(=O)c1cc[nH]n1 [Compound 10, 8-O-1H-Pyrazole-3′-carbonylbranimycin]	rule not met

Now, please, on to the next compound.
Req: Lab note: MIC threshold 8 µg/mL. Does this compound come in strictly under it? COC[C@@H]1[C@@H](O)[C@@H]2[C@H]3C=C[C@@H]4[C@@H](COC)C(=O)O[C@H]([C@H](O)COC)[C@H](C)/C=C(\C)[C@@]24O[C@H]3[C@@H]1OC(=O)c1cc(Br)c(F)[nH]1 [Compound 37]
Resp: rule not met
